- Test system: 786-O
- experimental_details: Cytotoxicity assay (Version 2, automated, AC50) with/without neutrophil elastase
- Format: cell-based, human
- condition_summary: without (−) neutrophil elastase, Version 2, activity concentration at −50%
Where a name gives a salt, the structure may show the parent alone.
measurement_kind: AC50

Illustrative cases are given below, each with its answer.
| compound | AC50 |
| --- | --- |
| CCCNC(=O)Nc1cccc(S(=O)(=O)Nc2cccc([C@@H](CC(=O)O)NC(=O)Nc3ccc(NC(=O)NCCN(C)CCN(C)CCN(C)CC(=O)N[C@@H](CC(N)=O)C(=O)N4CCC[C@H]4C(=O)N[C@H](C(=O)N=[S@@](C)(=O)Cc4cc5cc(c4)O[C@@H](C)CCOc4cc(F)ccc4-c4nc(ncc4F)N5)C(C)C)cc3)c2)c1 (single isomer, unassigned) | 100 to 1000 nM |
| CCCNC(=O)Nc1cccc(S(=O)(=O)Nc2cccc([C@@H](CC(=O)O)NC(=O)Nc3ccc(NC(=O)NCCN(C)CCN(C)CCN(C)CC(=O)N[C@@H](CC(N)=O)C(=O)N4CCC[C@H]4C(=O)N[C@H](C(=O)N=[S@@](C)(=O)Cc4cc5cc(c4)OCCCCCNc4cc(ccc4F)-c4nc(ncc4F)N5)C(C)C)cc3)c2)c1 (relative stereo) | 100 to 1000 nM |

Shifting focus to the compound that follows.
In: Give its AC50 value. Item: CCCNC(=O)Nc1cccc(S(=O)(=O)Nc2cccc([C@@H](CC(=O)O)NC(=O)Nc3ccc(NC(=O)NCCOCCOCCOCCC(=O)N[C@@H](CC(=O)OCCC[N+](C)(C)C)C(=O)N4CCC[C@H]4C(=O)N[C@H](C(=O)N=S(C)(=O)Cc4cc5cc(c4)OCCCCOc4cc(F)ccc4-c4nc(ncc4F)N5)C(C)C)cc3)c2)c1 (single isomer, unassigned) [Compound 20, trifluoroacetate]
Out: > 1000 nM

###

AC50 by entry:
- Tested on: SUM149
- experimental_details: Cytotoxicity assay (Version 2, automated, AC50) with/without neutrophil elastase
- Type: cell-based
- condition_summary: SUM149, without (−) neutrophil elastase, Version 2, activity concentration at −50%

| molecule | AC50 |
| --- | --- |
| CCCNC(=O)Nc1cccc(S(=O)(=O)Nc2cccc([C@@H](CC(=O)O)NC(=O)Nc3ccc(NC(=O)N(C)CCN(C)CCN(C)CC(=O)N[C@@H](CC(N)=O)C(=O)N4CCC[C@H]4C(=O)N[C@H](C(=O)N=[S@@](C)(=O)Cc4ccnc(Nc5cc(-c6ccc(F)cc6OC)c(F)cn5)c4)C(C)C)cc3)c2)c1 | > 1 µM |
| CCCNC(=O)Nc1cccc(S(=O)(=O)Nc2cccc([C@H](CC(=O)O)NC(=O)Nc3ccc(NC(=O)NCCOCCOCCOCCC(=O)NCCCC[C@H](NC(=O)CCOCCOCCOCCNC(=O)Nc4ccc(NC(=O)N[C@@H](CC(=O)O)c5cccc(NS(=O)(=O)c6cccc(NC(=O)NCCC)c6)c5)cc4)C(=O)NCCN(C)CCN(C)CCN(C)CC(=O)N[C@@H](CC(N)=O)C(=O)N4CCC[C@H]4C(=O)N[C@H](C(=O)N=[S@@](C)(=O)Cc4cc5cc(c4)O[C@@H](C)CCOc4cc(F)ccc4-c4nc(ncc4F)N5)C(C)C)cc3)c2)c1 (relative stereo) | 0.1 to 1 µM |

In: Test system SUM149; read-out AC50; what value for CCCNC(=O)Nc1cccc(S(=O)(=O)Nc2cccc([C@@H](CC(=O)O)NC(=O)Nc3ccc(NC(=O)NCCOCCOCCOCCC(=O)N[C@@H](CC(=O)O)C(=O)N4CCC[C@H]4C(=O)N[C@H](C(=O)N=[S@](C)(=O)Cc4cc5nc(c4)O[C@@H](C)CCCCOc4cc(F)ccc4-c4cc(ncc4F)N5)C(C)C)cc3)c2)c1 (relative stereo) ?
Out: > 1 µM
